Below, each entry is listed alongside its reported IC50.
- System Under Test: T1, recombinant human PLVAP51-442 protein (extracellular domain, His tag removed by thrombin) (human, UniProt Q9BX97 51-442)
- T1 construct: also called recombinant PLVAP protein; recombinant PLVAP
- T1 sequence: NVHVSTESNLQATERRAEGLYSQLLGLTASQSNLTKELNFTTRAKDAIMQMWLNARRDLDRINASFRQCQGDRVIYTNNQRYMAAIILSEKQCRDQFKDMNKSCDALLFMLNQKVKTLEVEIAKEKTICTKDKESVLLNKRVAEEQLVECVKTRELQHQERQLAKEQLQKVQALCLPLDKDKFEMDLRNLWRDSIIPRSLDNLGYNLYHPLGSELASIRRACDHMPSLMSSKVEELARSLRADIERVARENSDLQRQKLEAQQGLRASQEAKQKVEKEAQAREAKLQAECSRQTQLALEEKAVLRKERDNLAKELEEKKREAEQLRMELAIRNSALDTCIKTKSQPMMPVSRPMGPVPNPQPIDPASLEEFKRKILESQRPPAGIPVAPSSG
- Experimental Details: competition ELISA on coated recombinant PLVAP; competitor biotinylated murine KFCC-GY4
Test Readout: IC50 (µg/mL)

Binder: humanized KFCC-GY4 antibody CSR01-VH4/VK3 (antibody, human IgG4, V domains shown, also called VH4/VK3 (GY4 variant); CSR01-VH4NK3) VH: EVQLVQSGAEVKKPGASVKVSCTASGFNIKDYYIHWVRQAPGQGLEWIGWIDPENGDIEYAPKFQGRATITADTSTDTAYMEFSSLRSEDTAVYYCLYQEGSWGQGTTVTVSS VL: DVVMTQSPLSLPVTLGQPASISCKSSQSLLNSDGKTYLNWLQQRPGQSPRRLIYLVSKLDSGVPDRFSGSGSGTDFTLKISRVEAEDVGVYYCWQGTHFPFTFGGGTKVEIKR
Test Readout: IC50
Assay Result: 2.94

Binder: humanized KFCC-GY4 antibody CSR01-VH5/VK3 (antibody, human IgG4, V domains shown, also called VH5/VK3 (GY4 variant); VH5/VK3 IgG4) VH: EVQLVQSGAEVKKPGASVKVSCTASGFNIKDYYIHWVRQAPGQGLEWIGWIDPENGDIEYAPKFQGRATITADTSTDTAYMELSSLRSEDTAVYYCLYQEGSWGQGTTVTVSS VL: DVVMTQSPLSLPVTLGQPASISCKSSQSLLNSDGKTYLNWLQQRPGQSPRRLIYLVSKLDSGVPDRFSGSGSGTDFTLKISRVEAEDVGVYYCWQGTHFPFTFGGGTKVEIKR
Test Readout: IC50
Assay Result: 2.82

Binder: humanized KFCC-GY4 antibody CSR01-VH5/VK2 (antibody, human IgG4, V domains shown, also called VH5/VK2 (GY4 variant); CSR01-VH5NK2) VH: EVQLVQSGAEVKKPGASVKVSCTASGFNIKDYYIHWVRQAPGQGLEWIGWIDPENGDIEYAPKFQGRATITADTSTDTAYMELSSLRSEDTAVYYCLYQEGSWGQGTTVTVSS VL: DVVMTQSPLSLPVTLGQPASISCKSSQSLLNSDGKTYLNWLQQRPGQSPRRLIYLVSKLDSGVPDRFTGSGSGTDFTLKISRVEAEDVGVYYCWQGTHFPFTFGGGTKVEIKR
Test Readout: IC50
Assay Result: 1.91

Binder: humanized KFCC-GY4 antibody CSR01-VH4/VK2 (antibody, human IgG4, V domains shown, also called VH4/VK2 (GY4 variant); CSR01-VH4NK2) VH: EVQLVQSGAEVKKPGASVKVSCTASGFNIKDYYIHWVRQAPGQGLEWIGWIDPENGDIEYAPKFQGRATITADTSTDTAYMEFSSLRSEDTAVYYCLYQEGSWGQGTTVTVSS VL: DVVMTQSPLSLPVTLGQPASISCKSSQSLLNSDGKTYLNWLQQRPGQSPRRLIYLVSKLDSGVPDRFTGSGSGTDFTLKISRVEAEDVGVYYCWQGTHFPFTFGGGTKVEIKR
Test Readout: IC50
Assay Result: 2.53
